Molecular target: feline FcRn (FCN-F82W3, Acrobiosystems) (feline)
Assay: SPR Carterra, IgG coupled, pH 6.0
Please respond with reported kon for every item in the list.
Answers are plain numbers, in M⁻¹ s⁻¹.

Provide each entry's kon from the list below.
1. anti-NGF feline IgG1a, Fc variant T260E, L309E, Q355L (antibody, part only; not given: anti-NGF variable domains, not shown: another chain or arm of the molecule; small tags and cut ends) Fc: PPEMLGGPSIFIFPPKPKDTLSISRTPEVECLVVDLGPDDSDVQITWFVDNTQVYTAKTSPREEQFNSTYRVVSVLPIEHQDWLKGKEFKCKVNSKSLPSPIERTISKAKGQPHEPQVYVLPPALEELSRNKVSVTCLIKSFHPPDIAVEWEITGQPEPENNYRTTPPQLDSDGTYFVYSKLSVDRSHWQRGNTYTCSVSHEALHSHHTQKSLTQSPGK
2. anti-NGF feline IgG1a, Fc variant I377Y (antibody, part only; not given: anti-NGF variable domains, not shown: another chain or arm of the molecule; small tags and cut ends) Fc: PPEMLGGPSIFIFPPKPKDTLSISRTPEVTCLVVDLGPDDSDVQITWFVDNTQVYTAKTSPREEQFNSTYRVVSVLPILHQDWLKGKEFKCKVNSKSLPSPIERTISKAKGQPHEPQVYVLPPAQEELSRNKVSVTCLIKSFHPPDYAVEWEITGQPEPENNYRTTPPQLDSDGTYFVYSKLSVDRSHWQRGNTYTCSVSHEALHSHHTQKSLTQSPGK
3. anti-NGF feline IgG1a, Fc variant S434Y (antibody, part only; not given: Anti-NGF variable domains, not shown: another chain or arm of the molecule; small tags and cut ends) Fc: PPEMLGGPSIFIFPPKPKDTLSISRTPEVTCLVVDLGPDDSDVQITWFVDNTQVYTAKTSPREEQFNSTYRVVSVLPILHQDWLKGKEFKCKVNSKSLPSPIERTISKAKGQPHEPQVYVLPPAQEELSRNKVSVTCLIKSFHPPDIAVEWEITGQPEPENNYRTTPPQLDSDGTYFVYSKLSVDRSHWQRGNTYTCSVSHEALHYHHTQKSLTQSPGK
4. anti-NGF feline IgG1a, Fc variant S428L, I377V (antibody, part only; not given: anti-NGF variable domains, not shown: another chain or arm of the molecule; small tags and cut ends) Fc: PPEMLGGPSIFIFPPKPKDTLSISRTPEVTCLVVDLGPDDSDVQITWFVDNTQVYTAKTSPREEQFNSTYRVVSVLPILHQDWLKGKEFKCKVNSKSLPSPIERTISKAKGQPHEPQVYVLPPAQEELSRNKVSVTCLIKSFHPPDVAVEWEITGQPEPENNYRTTPPQLDSDGTYFVYSKLSVDRSHWQRGNTYTCSVLHEALHSHHTQKSLTQSPGK

### Response
1. 983000
2. 837000
3. 1.22e+06
4. 1.69e+06

Provide each entry's kon from the list below.
1. anti-NGF feline IgG1a, Fc variant R392E (antibody, part only; not given: anti-NGF variable domains, light chain, not shown: another chain or arm of the molecule; small tags and cut ends) Fc: PPEMLGGPSIFIFPPKPKDTLSISRTPEVTCLVVDLGPDDSDVQITWFVDNTQVYTAKTSPREEQFNSTYRVVSVLPILHQDWLKGKEFKCKVNSKSLPSPIERTISKAKGQPHEPQVYVLPPAQEELSRNKVSVTCLIKSFHPPDIAVEWEITGQPEPENNYETTPPQLDSDGTYFVYSKLSVDRSHWQRGNTYTCSVSHEALHSHHTQKSLTQSPGK
2. anti-NGF feline IgG1a, Fc variant S434Y, Q347L (antibody, part only; not given: Anti-NGF variable domains, not shown: another chain or arm of the molecule; small tags and cut ends) Fc: PPEMLGGPSIFIFPPKPKDTLSISRTPEVTCLVVDLGPDDSDVQITWFVDNTQVYTAKTSPREEQFNSTYRVVSVLPILHQDWLKGKEFKCKVNSKSLPSPIERTISKAKGQPHEPLVYVLPPAQEELSRNKVSVTCLIKSFHPPDIAVEWEITGQPEPENNYRTTPPQLDSDGTYFVYSKLSVDRSHWQRGNTYTCSVSHEALHYHHTQKSLTQSPGK

### Response
1. 1.33e+06
2. 1.98e+06

Provide each entry's kon from the list below.
1. anti-NGF feline IgG1a, Fc variant Q347L (antibody, part only; not given: Anti-NGF variable domains, not shown: another chain or arm of the molecule; small tags and cut ends) Fc: PPEMLGGPSIFIFPPKPKDTLSISRTPEVTCLVVDLGPDDSDVQITWFVDNTQVYTAKTSPREEQFNSTYRVVSVLPILHQDWLKGKEFKCKVNSKSLPSPIERTISKAKGQPHEPLVYVLPPAQEELSRNKVSVTCLIKSFHPPDIAVEWEITGQPEPENNYRTTPPQLDSDGTYFVYSKLSVDRSHWQRGNTYTCSVSHEALHSHHTQKSLTQSPGK
2. anti-NGF feline IgG1a, Fc variant S428L, I383L (antibody, part only; not given: anti-NGF variable domains, light chain, not shown: another chain or arm of the molecule; small tags and cut ends) Fc: PPEMLGGPSIFIFPPKPKDTLSISRTPEVTCLVVDLGPDDSDVQITWFVDNTQVYTAKTSPREEQFNSTYRVVSVLPILHQDWLKGKEFKCKVNSKSLPSPIERTISKAKGQPHEPQVYVLPPAQEELSRNKVSVTCLIKSFHPPDIAVEWELTGQPEPENNYRTTPPQLDSDGTYFVYSKLSVDRSHWQRGNTYTCSVLHEALHSHHTQKSLTQSPGK
3. anti-NGF feline IgG1a, Fc variant S426L, S428H (antibody, part only; not given: anti-NGF variable domains, light chain, not shown: another chain or arm of the molecule; small tags and cut ends) Fc: PPEMLGGPSIFIFPPKPKDTLSISRTPEVTCLVVDLGPDDSDVQITWFVDNTQVYTAKTSPREEQFNSTYRVVSVLPILHQDWLKGKEFKCKVNSKSLPSPIERTISKAKGQPHEPQVYVLPPAQEELSRNKVSVTCLIKSFHPPDIAVEWEITGQPEPENNYRTTPPQLDSDGTYFVYSKLSVDRSHWQRGNTYTCLVHHEALHSHHTQKSLTQSPGK
4. anti-NGF feline IgG1a, Fc variant S434F (antibody, part only; not given: anti-NGF variable domains, light chain, not shown: another chain or arm of the molecule; small tags and cut ends) Fc: PPEMLGGPSIFIFPPKPKDTLSISRTPEVTCLVVDLGPDDSDVQITWFVDNTQVYTAKTSPREEQFNSTYRVVSVLPILHQDWLKGKEFKCKVNSKSLPSPIERTISKAKGQPHEPQVYVLPPAQEELSRNKVSVTCLIKSFHPPDIAVEWEITGQPEPENNYRTTPPQLDSDGTYFVYSKLSVDRSHWQRGNTYTCSVSHEALHFHHTQKSLTQSPGK

### Response
544000
1.63e+06
445000
1.73e+06
